Overview of recorded viability, T/C for various compounds
Tested on: 317291-083-R-J1-PDC complex spheroids, viability
Assay: Anticancer human tumor 317291-083-R-J1-PDC patient-derived soft tissue sarcoma cell line growth inhibition [GQUAD]
Conditions: second compound 0.316 µM; first compound 3.16 µM; active compounds read low
Reply with just the number (in %).

Completed entries (count: 4):
compound="CC1COCCN1c1cc(C2(O)CC3CCC(C2)O3)c2cnn(-c3ccn[nH]3)c2n1 (stereo not given) + Cc1cnc(CNC(=O)c2c(=O)c3ccc(N4CCCN(C)CC4)nc3n3c2sc2ccccc23)cn1" target_system="317291-083-R-J1-PDC complex spheroids, viability" measured_property="viability, T/C" test_result=11.1
compound="CC(C)n1c(=O)n(C)c2cnc3cc(F)c(-c4ccc(OCCCN5CCCCC5)nc4)cc3c21 + Cc1[nH]c2ccc(F)cc2c1-c1nc2c3cccnc3c3ncccc3c2[nH]1" target_system="317291-083-R-J1-PDC complex spheroids, viability" measured_property="viability, T/C" test_result=106
compound="CC(C)n1c(=O)n(C)c2cnc3cc(F)c(-c4ccc(OCCCN5CCCCC5)nc4)cc3c21 + Cc1cnc(CNC(=O)c2c(=O)c3ccc(N4CCCN(C)CC4)nc3n3c2sc2ccccc23)cn1" target_system="317291-083-R-J1-PDC complex spheroids, viability" measured_property="viability, T/C" test_result=33
compound="CC1COCCN1c1cc(C2(S(C)(=N)=O)CC2)nc(-c2ccnc3[nH]ccc23)n1 (stereo not given) + CN(C)c1ccc(Nc2c3ccc(NC(=O)CCN4CCCC4)cc3nc3cc(NC(=O)CCN4CCCC4)ccc23)cc1" target_system="317291-083-R-J1-PDC complex spheroids, viability" measured_property="viability, T/C" test_result=21.6

Next up:
Ask | With 317291-083-R-J1-PDC complex spheroids, viability as the test system, provide measured viability, T/C for this compound: COc1ncnc(C2CC2)c1-c1ncc2cnn(Cc3ccc(-c4nc(C(F)(F)F)cn4C(C)C)cc3)c2n1 + Cc1cnc(CNC(=O)c2c(=O)c3ccc(N4CCCN(C)CC4)nc3n3c2sc2ccccc23)cn1
Reply | 37.4

* * *

Tested on: 317291-083-R-J1-PDC complex spheroids, viability
Test: Anticancer human tumor 317291-083-R-J1-PDC cell line growth inhibition [GQUAD];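 note: spheroids exposed to compounds for one week before readout; percent viability relative to DMSO vehicle wells taken as 100%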
Details: second compound 0.0316 µM; first compound 3.16 µM; active compounds read low
measured_property: viability, T/C (%)
Reply with just the number (in %).

Completed entries (count: 4):
molecule="COc1ncnc(C2CC2)c1-c1ncc2cnn(Cc3ccc(-c4nc(C(F)(F)F)cn4C(C)C)cc3)c2n1 + Cc1cnc(CNC(=O)c2c(=O)c3ccc(N4CCCN(C)CC4)nc3n3c2sc2ccccc23)cn1" target_system="317291-083-R-J1-PDC complex spheroids, viability" test_result=67
molecule="COc1cc(C2c3cc4c(cc3C(OC3OC5COC(C)OC5C(O)C3O)C3COC(=O)C23)OCO4)cc(OC)c1O (stereo not given) + Cc1[nH]c2ccc(F)cc2c1-c1nc2c3cccnc3c3ncccc3c2[nH]1" target_system="317291-083-R-J1-PDC complex spheroids, viability" test_result=17.9
molecule="O=C(c1cc(Cc2n[nH]c(=O)c3ccccc23)ccc1F)N1CCN(C(=O)C2CC2)CC1 + CN(C)c1ccc(Nc2c3ccc(NC(=O)CCN4CCCC4)cc3nc3cc(NC(=O)CCN4CCCC4)ccc23)cc1" target_system="317291-083-R-J1-PDC complex spheroids, viability" test_result=84.9
molecule="COc1ccc([C@@H](O)c2cc(-c3ncnc4cc(N5CCOCC5)ccc34)c(F)cc2Cl)nn1 + Cc1[nH]c2ccc(F)cc2c1-c1nc2c3cccnc3c3ncccc3c2[nH]1" target_system="317291-083-R-J1-PDC complex spheroids, viability" test_result=72.2

Ask | Using the record for CC(=O)O[C@H]1C(=O)[C@@]2(C)[C@H]([C@H](OC(=O)c3ccccc3)[C@]3(O)C[C@H](OC(=O)[C@H](O)[C@@H](NC(=O)c4ccccc4)c4ccccc4)C(C)=C1C3(C)C)[C@]1(OC(C)=O)CO[C@@H]1C[C@@H]2O + CN(C)c1ccc(Nc2c3ccc(NC(=O)CCN4CCCC4)cc3nc3cc(NC(=O)CCN4CCCC4)ccc23)cc1 , state its measured viability, T/C.
Reply | 11.4
